- TEST_PROTOCOL: Solubility in ambient conditions
- Format: physicochemical
- MEASUREMENT_CONDITIONS: acetone, organic solvent or mixture, read-out: Solubility in acetone
OBSERVATION_TYPE: solubility (µg/mL)
Give the value in µg/mL but do not write µg/mL after it.

Problem: State the recorded solubility for this entry: COC(=O)Nc1nc2cc(C(=O)c3ccc(F)cc3)ccc2[nH]1
Result: 180

----------
- TEST_PROTOCOL: LogP of flubendazole
- Assay type: physicochemical
OBSERVATION_TYPE: logP
Form: value (number only, do not type unit).

Problem: State the recorded logP for this entry: COC(=O)Nc1nc2cc(C(=O)c3ccc(F)cc3)ccc2[nH]1
Result: 3

----------
- TEST_PROTOCOL: Solubility in ambient conditions
- Format: physicochemical
- MEASUREMENT_CONDITIONS: water, read-out: Solubility in water
OBSERVATION_TYPE: solubility
Your reply should be a number followed by the unit it is expressed in.

Problem: State the recorded solubility for this entry: COC(=O)Nc1nc2cc(C(=O)c3ccc(F)cc3)ccc2[nH]1 [FLU, flubendazole]
Result: 5 µg/mL

----------
- TEST_PROTOCOL: Solubility in ambient conditions
- Assay type: physicochemical
- MEASUREMENT_CONDITIONS: dichloromethane, organic solvent or mixture, read-out: Solubility in dichloromethane
OBSERVATION_TYPE: solubility (µg/mL)
Give the value in µg/mL but do not write µg/mL after it.

Problem: State the recorded solubility for this entry: COC(=O)Nc1nc2cc(C(=O)c3ccc(F)cc3)ccc2[nH]1 [FLU, flubendazole]
Result: 140

----------
- TEST_PROTOCOL: Solubility in ambient conditions
- Format: physicochemical
- MEASUREMENT_CONDITIONS: formic acid, organic solvent or mixture, read-out: Solubility in formic acid
OBSERVATION_TYPE: solubility (mg/mL)
Give the value in mg/mL but do not write mg/mL after it.

Problem: State the recorded solubility for this entry: COC(=O)Nc1nc2cc(C(=O)c3ccc(F)cc3)ccc2[nH]1 [FLU, flubendazole]
Result: 340

----------
- TEST_PROTOCOL: pKa of flubendazole
- Type: physicochemical
OBSERVATION_TYPE: pKa
Form: value (number only, do not type unit).

Problem: State the recorded pKa for this entry: COC(=O)Nc1nc2cc(C(=O)c3ccc(F)cc3)ccc2[nH]1
Result: 9.6

----------
- TEST_PROTOCOL: Apparent permeability (Papp)
- Format: in vitro ADME
- MEASUREMENT_CONDITIONS: not told, AB
OBSERVATION_TYPE: Papp at 10 μM (×10⁻⁶ cm/s)
Give the value in ×10⁻⁶ cm/s but do not write ×10⁻⁶ cm/s after it.

Problem: State the recorded Papp at 10 μM for this entry: COC(=O)Nc1nc2cc(C(=O)c3ccc(F)cc3)ccc2[nH]1
Result: 33.8
